test system: NCI-H522; experiment: NCI tumour cell line growth inhibition, 48 h
The source made the active and inactive calls. Cut-off read from the data, not from the text of the source: active = GI50 up to about 1.1 µM and inactive = higher.
Response enum: YES = active, NO = inactive

Observe how each entry below is paired with its result.
CC(O)c1cc2c(s1)C(=O)c1c(C(C)O)csc1C2=O (stereo unspecified)    YES
CC(=O)Nc1ccccc1S(=O)(=O)c1ccccc1    NO
CC(C)/C(Cl)=N/OC(=O)Nc1ccc(F)c(Cl)c1    NO
CCc1cccc(C(C)C)c1NC(=O)C(=O)Nn1c(S)nc2ccccc2c1=O    NO
Cc1nc2nnnn2c2c1C(=O)Nc1ccccc1N2    NO
COc1cccc(C(=O)N2CCc3ccccc32)c1OC    NO
O=C(O)CCC(=O)Nc1ccc2c(c1)S(=O)(=O)N(CC(=O)O)C2=O    NO
COc1ccc(/C=N/NC(=O)O)cc1    NO

Task: Status in this test for C=C(C)C1Cc2c(c3ccccc3n(C)c2=O)O1 (stereo unspecified) ?
Result: NO

Task: Status in this test for `Fc1ccc(NCn2nc(COc3ccccc3Cl)n(/N=C/c3ccc(-c4ccc(Cl)cc4Cl)o3)c2=S)cc1Cl` ?
Result: NO

Task: Status in this test for `CC(C)c1nc2c(Cl)c3ncccc3cc2[nH]c1=O` ?
Result: NO

Task: Status in this test for `COC(=O)[C@@H](NC(=O)c1ccc(CNC(=O)/C(C)=C/c2ccccc2)cc1)C(C)C` ?
Result: NO

Task: Status in this test for `COc1ccc(/C=C(\NC(=O)c2ccccc2)c2nc3ccccc3[nH]2)cc1OC` ?
Result: NO

Task: Status in this test for C/C1=C\[C@@H](O)C(=O)/C=C/C=C\c2csc(n2)[C@@H](C)NC(=O)C[C@@]2(CC1)[S+]([O-])SC(=O)[C@]2(C)O (stereo partly specified) ?
Result: YES

Task: Status in this test for CCOC(=O)CC(NC(=O)c1nc[nH]c1/N=N/N(C)C)C(=O)OCC (stereo unspecified) ?
Result: NO

Task: Status in this test for `O=C1OCC/C1=N/O` ?
Result: NO

Task: Status in this test for `C[C@H]1CC[C@@H]2[C@@H](C)[C@H]3[C@H](C[C@H]4[C@@H]5CC=C6C[C@@H](O)CC[C@]6(C)[C@H]5CC[C@]34C)N2C1` ?
Result: NO
